target: PDGFRα (Homo sapiens (Human)); assay: Inhibition of PDGFRα kinase activity (HTRF KinEASE-TK); details: biochemical, HTRF KinEASE-TK
Items are presented alongside their recorded IC50.
Measurement kind: IC50

• Cc1cc(F)c(C(=O)Nc2ccc(OC(C)C)cn2)cc1NC(=O)c1cnc(N)s1 [Example 140] = 100 to 1000 nM
• Cc1ncc(C(=O)Nc2cc(C(=O)NCc3ccc(F)cc3F)c(F)cc2C)s1 [Example 263] = > 1000 nM
• Cc1cc(F)c(C(=O)Nc2ccc3c(c2)C(F)(F)C(=O)N3)cc1NC(=O)c1cnc(N)s1 [Example 188] = < 100 nM
• Cc1ncc(C(=O)Nc2cc(C(=O)Nc3cnc(N4CCCC4)cn3)c(F)cc2C)s1 [Example 85] = > 1000 nM
• COc1ccnc(NC(=O)c2cc(NC(=O)c3cnc(N)s3)c(C)cc2F)c1 [Example 189] = > 1000 nM

---

molecular target: PDGFRα (Homo sapiens (Human), UniProt P16234); assay: Inhibition of PDGFRα kinase activity (HTRF KinEASE-TK); details: biochemical, HTRF KinEASE-TK
Sequence (P16234 24-1089): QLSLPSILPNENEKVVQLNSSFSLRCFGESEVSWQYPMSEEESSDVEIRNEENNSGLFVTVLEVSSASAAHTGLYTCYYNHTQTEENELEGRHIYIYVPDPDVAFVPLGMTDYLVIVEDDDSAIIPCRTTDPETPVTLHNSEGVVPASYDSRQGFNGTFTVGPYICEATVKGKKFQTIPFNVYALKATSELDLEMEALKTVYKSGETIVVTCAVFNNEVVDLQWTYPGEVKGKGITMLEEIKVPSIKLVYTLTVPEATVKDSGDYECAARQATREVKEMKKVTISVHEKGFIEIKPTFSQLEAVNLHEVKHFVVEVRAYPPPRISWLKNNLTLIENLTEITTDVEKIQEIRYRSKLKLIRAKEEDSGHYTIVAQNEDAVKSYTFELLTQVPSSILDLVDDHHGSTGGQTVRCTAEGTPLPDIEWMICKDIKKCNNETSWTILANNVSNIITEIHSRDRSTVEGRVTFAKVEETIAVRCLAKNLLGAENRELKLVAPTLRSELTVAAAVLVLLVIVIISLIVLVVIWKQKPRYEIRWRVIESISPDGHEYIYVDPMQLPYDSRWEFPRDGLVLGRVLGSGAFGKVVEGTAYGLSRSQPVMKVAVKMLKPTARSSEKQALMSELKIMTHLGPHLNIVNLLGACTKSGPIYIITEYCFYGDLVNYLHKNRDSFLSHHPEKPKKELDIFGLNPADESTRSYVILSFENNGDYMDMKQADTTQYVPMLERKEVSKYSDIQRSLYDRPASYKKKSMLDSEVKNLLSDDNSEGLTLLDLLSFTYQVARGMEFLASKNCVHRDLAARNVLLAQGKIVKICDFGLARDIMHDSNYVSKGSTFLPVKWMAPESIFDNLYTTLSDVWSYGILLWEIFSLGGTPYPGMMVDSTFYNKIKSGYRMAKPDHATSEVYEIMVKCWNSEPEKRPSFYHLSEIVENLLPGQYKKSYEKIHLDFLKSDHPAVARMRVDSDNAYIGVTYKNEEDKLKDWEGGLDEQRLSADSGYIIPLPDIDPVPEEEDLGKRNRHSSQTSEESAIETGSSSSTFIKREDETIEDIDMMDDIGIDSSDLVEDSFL
Measurement kind: IC50

* CCOc1ccc(NC(=O)c2cc(NC(=O)c3cnc(N)s3)c(F)cc2F)nc1 | > 1000 nM
* Cc1cc(F)c(C(=O)Nc2ccc(C3CC3)cn2)cc1NC(=O)c1cnc(N)s1 | 100 to 1000 nM
* Cc1cc(F)c(C(=O)NC2CN(C(=O)C3CC3)C2)cc1NC(=O)c1cnc(N)s1 | > 1000 nM
* Cc1ncc(C(=O)Nc2cc(C(=O)Nc3ccn(CC(C)C)n3)c(F)cc2C)s1 | > 1000 nM
* Cc1cc(F)c(C(=O)Nc2ccc(S(C)(=O)=O)cn2)cc1NC(=O)c1cnc(N)s1 | > 1000 nM
* Cc1cc(F)c(C(=O)Nc2ccc(COC(C)C)cn2)cc1NC(=O)c1cnc(N)s1 | > 1000 nM
* COc1ccc(NC(=O)c2cc(NC(=O)c3cnc(N)s3)c(C)cc2F)nc1 | > 1000 nM
* Cc1cc(F)c(C(=O)Nc2ncn(C)n2)cc1NC(=O)c1cnc(N)s1 | > 1000 nM
* Cc1ncc(C(=O)Nc2cc(C(=O)Nc3ccc(OC(F)F)cn3)c(F)cc2C)s1 | > 1000 nM
* Nc1ncc(C(=O)Nc2cc(C(=O)Nc3ccc(OC4CC4)cn3)c(F)cc2Br)s1 | > 1000 nM
* Cc1cc(F)c(C(=O)Nc2cc3n(n2)CCN(C)C3)cc1NC(=O)c1cnc(N)s1 | > 1000 nM
* COCc1ccc(NC(=O)c2cc(NC(=O)c3cnc(C)s3)c(C)cc2F)nc1 | > 1000 nM
* Nc1ncc(C(=O)Nc2cc(C(=O)Nc3ccc(OC(F)(F)F)cn3)c(F)cc2F)s1 | > 1000 nM
* Cc1cc(F)c(C(=O)N[C@H]2C[C@@H](F)C2)cc1NC(=O)c1cnc(N)s1 | > 1000 nM
* Cc1ncc(C(=O)Nc2cc(C(=O)Nc3ccc(OCC(F)(F)F)cn3)c(F)cc2C)s1 | > 1000 nM
* Cc1c(F)cc(C(=O)Nc2ccc(OC3CC3)cn2)cc1NC(=O)c1cnc(N)s1 | < 100 nM
* Nc1ncc(C(=O)Nc2cc(C(=O)NC3CC3)c(F)cc2Cl)s1 | 100 to 1000 nM
* Cc1cc(F)c(C(=O)Nc2nnc(C3CC3)s2)cc1NC(=O)c1cnc(N)s1 | 100 to 1000 nM
* Cc1cc(F)c(C(=O)Nc2ccc(C(F)F)cn2)cc1NC(=O)c1cnc(N)s1 | > 1000 nM

Where these numbers come from: patent US20250145606A1
